# Tested on: SN12C
# protocol.description: NCI tumour cell line growth inhibition, 48 h
Calls of active or inactive are those of the source. Cut-off read from the data, not from the text of the source: active = GI50 up to about 1.1 µM and inactive = higher.
Exercise: state measured GI50 for each of the compounds provided.

Given the compound O=C(O)CCC(/N=C(\C(=N\C(CCC(=O)O)C(=O)O)c1ccccc1)c1ccccc1)C(=O)O (centres undefined) , write its reported GI50.
> 100 µM (inactive)

Give recorded GI50. CC1(C)CC(=O)c2c(nc3c(ccc4ccccc43)c2-c2ccc(NC(=O)CCCCC(=O)Nc3ccc(-c4c5c(nc6c4ccc4ccccc46)CC(C)(C)CC5=O)cc3)cc2)C1
33.1 µM (inactive)

Note GI50 for the compound shown: CSC1C=C(C(C)C)CCC1(C)SC (centres undefined)
16.9 µM (inactive)

Answer with the recorded GI50 of CCCCCCCCCCCCCCCC(=O)NCC(COP(=O)([O-])OCC[N+](C)(C)C)OCC (centres undefined) only.
12.5 µM (inactive)

###

# Tested on: DLD-1
# protocol.description: NCI tumour cell line growth inhibition, 48 h
Active and inactive are the calls of the source. No stated cut-off is given here; in the data, active = GI50 up to about 1.1 µM and inactive = higher.
Log the outcome using a class from true (1) (active), false (0) (inactive)

For this compound, state the assay outcome: CC(C)O/C=C1\C(=O)C2(SCCS2)[C@H]2CCCC[C@@H]12
false (0)

Record request — test call for COc1ccc(NC(=O)CC/C(CC(=O)c2ccccc2Cl)=N\Nc2nnc(C)n2N)cc1
false (0)

Given COc1ccc(C(=O)C(CC2C(=O)NC(=O)NC2=O)c2ccc(OC)cc2)cc1 (centres undefined) , state the outcome it received in this test.
false (0)

# lookup: test call for CCCCCNC(=O)C1C(=O)N(CCCCC)C(=O)/C1=N\N (centres undefined)
false (0)

What call does the record list for ClCCC[Si]12OCCN(CCO1)CCO2 ?
false (0)

Just curious, what result did CCCCCCCCCCCCCCCC(=O)NC1CCc2cc(O)c(O)c(O)c2-c2ccc(SC)c(=O)cc21 (centres undefined) get here?
false (0)

Field: outcome | Entry: C/C(=C\COc1ccc2ccc(=O)oc2c1)C1=CC(=O)C(C)(C)O1 [GEIPARVARIN]
false (0)

Which result was noted for this compound in the test: CO[C@@]1(c2ccccc2)O[C@H]2OCCC2[C@H]1c1ccc(Cl)cc1 (some centres undefined)
false (0)

What outcome does the record of this test show for C=CCC1C(=O)CC2(C)CC(=O)C(CC=C)C12C (centres undefined) ?
false (0)

Field: outcome | Entry: CSc1nnc(COc2ccc(Cl)cc2)o1
false (0)

Can you look up the reported call for COC(=O)[C@@H]1CSC(=S)N1C(=O)C[C@H]1CC=CC[C@H]1CC(=O)Sc1ccccc1 for me?
false (0)

Please share the test call associated with O=C1C[C@@H]2[C@@H](C=CC23CC3)N1O .
false (0)

Dear colleague, could you share the recorded outcome for COc1cc(C2c3cc4c(cc3[C@@H](NCCN(C)C)C3COC(=O)[C@H]23)OCO4)cc(OC)c1O (some centres undefined) when you have a moment?
true (1)

Outcome logged for Nc1nc(SCCC/C=C/B(O)O)nc2c1ncn2C1OC(COP(=O)(O)O)C(O)C1O (centres undefined) in this assay:
false (0)

Look up the recorded call for C/C(=N/O)c1ccc2c(c1)/C(=N/O)c1cc(/C(C)=N/O)ccc1-2 in this test.
false (0)

For N#Cc1ccc(Sc2nc3ccccc3[nH]2)cc1 , which call appears in the assay record?
false (0)

Per the records of this test, what outcome belongs to CCc1cccc(C(C)C)c1NC(=O)C(=O)CC(=O)c1c(C)[n+]([O-])c2ccccc2[n+]1[O-] ?
false (0)

Test call, this compound: Cc1nn(-c2ccccc2)c2nc(N3CCOCC3)nnc12
false (0)

Tell me the recorded outcome of this test for CCOC(=O)c1c2ccc(/C=C/c3ccccc3)ccc-2c(C(=O)OCC)c1N .
false (0)
